molecular target: T1, full length mouse DLL4 on overexpressing CHO or HEK293 cells (mouse, UniProt Q9JI71 27-686); assay: FMAT, hNotch1/Fc on CHO-mDLL4, periplasmic extract
T1 construct: whole, on cells; also called CHO-mDLL4; mDLL4
T1 sequence (Q9JI71 27-686): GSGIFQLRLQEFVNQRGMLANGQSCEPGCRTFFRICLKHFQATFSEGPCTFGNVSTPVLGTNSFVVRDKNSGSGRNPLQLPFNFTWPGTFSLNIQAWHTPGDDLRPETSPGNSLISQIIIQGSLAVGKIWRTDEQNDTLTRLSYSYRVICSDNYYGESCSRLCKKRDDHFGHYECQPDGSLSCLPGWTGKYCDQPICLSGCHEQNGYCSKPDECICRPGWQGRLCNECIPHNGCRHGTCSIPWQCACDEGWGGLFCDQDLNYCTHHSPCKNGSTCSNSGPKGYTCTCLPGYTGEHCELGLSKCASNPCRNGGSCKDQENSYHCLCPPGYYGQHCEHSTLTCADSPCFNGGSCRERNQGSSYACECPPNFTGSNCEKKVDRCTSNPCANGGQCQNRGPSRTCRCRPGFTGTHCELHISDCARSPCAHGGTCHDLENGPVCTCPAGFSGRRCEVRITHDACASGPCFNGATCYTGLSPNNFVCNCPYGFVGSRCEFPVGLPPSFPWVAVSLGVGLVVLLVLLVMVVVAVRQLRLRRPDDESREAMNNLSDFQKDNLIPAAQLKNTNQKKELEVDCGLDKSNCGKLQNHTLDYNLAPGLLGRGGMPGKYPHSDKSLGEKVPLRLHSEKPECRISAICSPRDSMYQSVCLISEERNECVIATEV
ENDPOINT NAME: FMAT mDLL4 % inhibition (%)
# value in %; strip the unit string

BINDER | UOM | FMAT mDLL4 % inhibition
DLLBII112E07 (VHH, tested as periplasmic extract; also called DLLBII112E7; not shown: C-terminal c-myc tag and His6 tag) VHH: EVQLVESGGGLVQAGGSLRLSCAASGRTVRSYATGWFRQAPGKEREFVAALRWSIGSIASVYYDDSVKGRFTISGDNAENTVYLQMNALKPEDTAIYYCASTTRGRYSALSASAYDYWGQGTQVTVSS | % | 85

Find the measured FMAT mDLL4 % inhibition of DLLBII112A03 (VHH, tested as periplasmic extract; also called DLLBII112A3; not shown: C-terminal c-myc tag and His6 tag) VHH: EVQLVESGGGLVQPGGSLRLSCAASGIRFSINGMGWYRQAPGKQREAVATITRGGIRDYTDSVKGRFTISRDIARNTVYLQMNNLKPEDSAVYYCNIDIYWGRGTQVTVSS and report it. 97

All values here come from patent US20110195494A1.
